Test system: S180 sarcoma cells
Assay: Growth of KM mice-transplanted S180 sarcoma cells in vivo
Set-up: unit not given here
Settings: Table 12; 500 μg/kg/day; saline 1.87 ± 0.52
Observation type: Sarcoma weight
Field format: numeric only.

Known Sarcoma weight results, listed for orientation:
1. VAPEEHPTLLTEAP [CMS-010.08] ... 1.05
2. APEEHPTLLTEAPLNPK [CMS-010.02] ... 0.97
3. VAPEEHPTLL [CMS-010.16] ... 0.99
4. EHPTLLTEAPLNPK [CMS-010.09] ... 0.85
5. VAPEEHP [CMS-010.22] ... 0.85
6. VAPEEHPTL [CMS-010.18] ... 0.59
7. PTLLTEAPLNPK [CMS-010.13] ... 0.73
8. VAPEEHPTLLTEAPL [CMS-010.07] ... 0.52
9. APLNPK [CMS-010.24] ... 1.20
10. PEEHPTLLTEAPLNPK [CMS-010.04] ... 0.62

**Q:** Sample HPTLLTEAPLNPK [CMS-010.11] — what was its Sarcoma weight?
**A:** 1.14

**Q:** Sample LLTEAPLNPK [CMS-010.17] — what was its Sarcoma weight?
**A:** 0.91

----------
Tested on: S180 sarcoma cells
Experiment: Growth of KM mice-transplanted S180 sarcoma cells in vivo
Set-up: unit not given here
Settings: Table 12; 250 μg/kg/day; V=(1/6)πABC; saline 1.20 ± 0.28
// label = MET if Sarcoma volume is not less than 0.4, otherwise NOT MET

Look over these answered cases.
1. APLNPK [CMS-010.24] ... NOT MET
2. LTEAPLNPK [CMS-010.19] ... MET
3. VAPEEHPTLLT [CMS-010.14] ... NOT MET
4. APEEHPTLLTEAPLNPK [CMS-010.02] ... NOT MET
5. HPTLLTEAPLNPK [CMS-010.11] ... MET
6. TEAPLNPK [CMS-010.21] ... MET
7. VAPEEH [CMS-010.25] ... MET
8. PTLLTEAPLNPK [CMS-010.13] ... MET
9. VAPEEHPT [CMS-010.20] ... MET
10. VAPEEHPTLL [CMS-010.16] ... MET

**Q:** Please tell me: is the substance EHPTLLTEAPLNPK [CMS-010.09] at or over 0.4 in terms of Sarcoma volume?
**A:** NOT MET

**Q:** Please tell me: is the substance VAPEEHPTLLTEAPLNP [CMS-010.03] at or over 0.4 in terms of Sarcoma volume?
**A:** NOT MET

----------
Tested on: S180 sarcoma cells
Experiment: Growth of KM mice-transplanted S180 sarcoma cells in vivo
Design: unit not given here
Details: Table 12; 500 μg/kg/day; saline 1.87 ± 0.52
Procedure: S180 sarcoma cells were transplanted intraperitoneally into KM mice for 6-8 days and the ascites aseptically collected. […] On the day after the last test substance administration, the sarcomas were removed from the mice and weighed. The diameters of each sarcoma on the three planes (A, B, C) were measured by a vernier caliper. The volume of the sarcoma was calculated by the formula: V=(⅙)πABC.
Observation type: Sarcoma weight
Field format: numeric only.

Known Sarcoma weight results, listed for orientation:
1. LTEAPLNPK [CMS-010.19] ... 0.68
2. VAPEEHPTLLT [CMS-010.14] ... 0.67
3. VAPEEHPT [CMS-010.20] ... 0.59

**Q:** Sample TLLTEAPLNPK [CMS-010.15] — what was its Sarcoma weight?
**A:** 0.68

**Q:** Sample VAPEEH [CMS-010.25] — what was its Sarcoma weight?
**A:** 0.52

----------
System: S180 sarcoma cells
Assay: Growth of KM mice-transplanted S180 sarcoma cells in vivo
Set-up: unit not given here
Settings: Table 12; 250 μg/kg/day; V=(1/6)πABC; saline 1.20 ± 0.28
Marks after values point to notes of the source that are not given here.
Observation type: Sarcoma volume

1) VAPEEHP [CMS-010.22] ... 0.24 ± 0.08*^@
2) PEEHPTLLTEAPLNPK [CMS-010.04] ... 0.17 ± 0.12*^@
3) LLTEAPLNPK [CMS-010.17] ... 0.40 ± 0.24
4) VAPEEHPTLLTEAP [CMS-010.08] ... 0.20 ± 0.14*^@
5) VAPEEHPTL [CMS-010.18] ... 0.27 ± 0.20*^@

**Q:** Under S180 sarcoma cells: Sarcoma volume value of VAPEEHPTLLTEAPL [CMS-010.07] ?
**A:** 0.24 ± 0.13*^@

**Q:** Under S180 sarcoma cells: Sarcoma volume value of VAPEEHPTLLTEAPLN [CMS-010.05] ?
**A:** 0.23 ± 0.19*^@

**Q:** Under S180 sarcoma cells: Sarcoma volume value of TLLTEAPLNPK [CMS-010.15] ?
**A:** 0.41 ± 0.37

**Q:** Under S180 sarcoma cells: Sarcoma volume value of EAPLNPK [CMS-010.23] ?
**A:** 0.21 ± 0.15*^@
